Let's go through some recorded MIC values for Staphylococcus aureus together.
A number alone suffices; assume µM.

1) CC(C)C[C@H](NC(=O)[C@H](C)NC(=O)CNC(=O)[C@H](CC(C)C)NC(=O)[C@@H](N)Cc1ccccc1)C(=O)N[C@@H](Cc1ccccc1)C(=O)N[C@@H](CCCCN)C(=O)N[C@@H](Cc1ccccc1)C(=O)N[C@@H](C)C(=O)N[C@@H](CO)C(=O)N[C@@H](CCCCN)C(=O)O = 40.7

Now consider a different molecule.
Given the entry CC[C@H](C)[C@H](N)C(=O)N[C@@H](CC(N)=O)C(=O)N[C@@H](Cc1c[nH]c2ccccc12)C(=O)N[C@@H](CCCCN)C(=O)N[C@@H](CCCCN)C(=O)N[C@H](C(=O)N[C@@H](C)C(=O)N[C@@H](CO)C(=O)N[C@H](C(=O)NCC(=O)N[C@@H](CCCCN)C(=O)N[C@@H](CCC(=O)O)C(=O)N[C@H](C(=O)N[C@@H](CC(C)C)C(=O)N[C@@H](CCCCN)C(=O)N[C@@H](C)C(=O)N[C@@H](CC(C)C)C(N)=O)C(C)C)[C@@H](C)CC)[C@@H](C)CC , report its measured MIC.
25.8

---

# Test system: Escherichia coli
Endpoint name: MIC (µM)
A number alone suffices; assume µM.

Known MIC results, listed for orientation:
1) CC(C)C[C@H](NC(=O)[C@@H](N)Cc1ccccc1)C(=O)NCC(=O)N[C@@H](CCCCN)C(=O)N[C@H](C(=O)N[C@@H](Cc1ccccc1)C(=O)N[C@@H](CCCCN)C(=O)N[C@@H](CCCCN)C(=O)N[C@@H](C)C(=O)N[C@@H](CO)C(=O)N[C@@H](CCCCN)C(=O)N[C@H](C(=O)N[C@H](C(=O)N1CCC[C@H]1C(=O)N[C@@H](C)C(=O)N[C@H](C(=O)N[C@@H](Cc1ccccc1)C(=O)NCC(=O)N[C@@H](CCCCN)C(=O)N[C@H](C(=O)O)C(C)C)C(C)C)C(C)C)C(C)C)C(C)C [FLGKVFKKASKVVPAVFGKV] = 119
2) CC(C)C[C@H](NC(=O)[C@H](CCCCN)NC(=O)[C@H](Cc1ccccc1)NC(=O)[C@@H](NC(=O)[C@@H](NC(=O)CNC(=O)[C@H](CC(C)C)NC(=O)[C@@H](N)Cc1ccccc1)C(C)C)C(C)C)C(=O)N[C@@H](C)C(=O)N[C@@H](CO)C(=O)N[C@@H](CCCCN)C(=O)N[C@H](C(=O)N[C@@H](Cc1ccccc1)C(=O)NCC(=O)N[C@@H](CCCCN)C(=O)N[C@H](C(=O)N[C@@H](Cc1ccccc1)C(=O)NCC(=O)N[C@@H](CCCCN)C(=O)N[C@H](C(=O)O)C(C)C)C(C)C)C(C)C [FLGVVFKLASKVFGKVFGKV] = 29.5
3) CC[C@H](C)[C@H](N)C(=O)N[C@@H](CC(=O)O)C(=O)N[C@@H](Cc1c[nH]c2ccccc12)C(=O)N[C@@H](CCCCN)C(=O)N[C@@H](CCCCN)C(=O)N[C@@H](CC(C)C)C(=O)N[C@@H](CC(C)C)C(=O)N[C@@H](CC(=O)O)C(=O)N[C@@H](C)C(=O)N[C@@H](C)C(=O)N[C@@H](CCCCN)C(=O)N[C@@H](CCC(N)=O)C(=O)N[C@H](C(=O)N[C@@H](CC(C)C)C(N)=O)[C@@H](C)CC [IDWKKLLDAAKQIL] = 45.3
4) CC(C)C[C@H](NC(=O)[C@H](C)NC(=O)[C@H](CO)NC(=O)[C@H](Cc1ccccc1)NC(=O)[C@@H](NC(=O)[C@H](CO)NC(=O)[C@@H]1CCCN1C(=O)[C@@H](NC(=O)[C@@H](NC(=O)[C@H](CCCCN)NC(=O)[C@H](CO)NC(=O)[C@H](C)NC(=O)[C@H](CC(C)C)NC(=O)[C@H](CCCCN)NC(=O)[C@H](Cc1ccccc1)NC(=O)[C@@H](NC(=O)[C@H](Cc1ccccc1)NC(=O)[C@@H](N)CO)C(C)C)C(C)C)C(C)C)C(C)C)C(=O)N[C@H](C(=O)N[C@@H](CCCN=C(N)N)C(=O)O)[C@@H](C)O [SFVFKLASKVVPSVFSALTR] = 117
5) CC[C@H](C)[C@H](NC(=O)[C@H](C)NC(=O)[C@H](CC(C)C)NC(=O)[C@H](CS)NC(=O)[C@H](Cc1cnc[nH]1)NC(=O)[C@H](C)N)C(=O)NCC(=O)N[C@@H](CCCN=C(N)N)C(=O)N[C@@H](CCCCN)C(N)=O [AHCLAIGRK] = 25.8

Now consider a different compound.
Query for Escherichia coli: what MIC does the record show for CC[C@H](C)[C@H](NC(=O)[C@@H](NC(=O)[C@H](CC(=O)O)NC(=O)[C@H](Cc1ccccc1)NC(=O)[C@H](CC(C)C)NC(=O)CN)C(C)C)C(=O)N[C@@H](C)C(=O)N[C@@H](CCCCN)C(=O)N[C@H](C(=O)N[C@@H](C)C(=O)N[C@@H](CO)C(=O)N[C@H](C(=O)N[C@H](C(=O)N[C@@H](CCCCN)C(=O)N[C@@H](CCCCN)C(=O)N[C@@H](CC(C)C)C(N)=O)[C@@H](C)CC)C(C)C)C(C)C [GLFDVIAKVASVIKKL] ?
29.4
